Cited source for all entries: patent US20250326769A1

study target: Ba/F3 EML4-ALK v1 I1171N/D1203N (Homo sapiens (Human), UniProt Q9HC35+Q9UM73, D1203N/I1171N)
Sequence (Q9UM73 other isoform, or with tags, fused parts or gaps I1171N/D1203N): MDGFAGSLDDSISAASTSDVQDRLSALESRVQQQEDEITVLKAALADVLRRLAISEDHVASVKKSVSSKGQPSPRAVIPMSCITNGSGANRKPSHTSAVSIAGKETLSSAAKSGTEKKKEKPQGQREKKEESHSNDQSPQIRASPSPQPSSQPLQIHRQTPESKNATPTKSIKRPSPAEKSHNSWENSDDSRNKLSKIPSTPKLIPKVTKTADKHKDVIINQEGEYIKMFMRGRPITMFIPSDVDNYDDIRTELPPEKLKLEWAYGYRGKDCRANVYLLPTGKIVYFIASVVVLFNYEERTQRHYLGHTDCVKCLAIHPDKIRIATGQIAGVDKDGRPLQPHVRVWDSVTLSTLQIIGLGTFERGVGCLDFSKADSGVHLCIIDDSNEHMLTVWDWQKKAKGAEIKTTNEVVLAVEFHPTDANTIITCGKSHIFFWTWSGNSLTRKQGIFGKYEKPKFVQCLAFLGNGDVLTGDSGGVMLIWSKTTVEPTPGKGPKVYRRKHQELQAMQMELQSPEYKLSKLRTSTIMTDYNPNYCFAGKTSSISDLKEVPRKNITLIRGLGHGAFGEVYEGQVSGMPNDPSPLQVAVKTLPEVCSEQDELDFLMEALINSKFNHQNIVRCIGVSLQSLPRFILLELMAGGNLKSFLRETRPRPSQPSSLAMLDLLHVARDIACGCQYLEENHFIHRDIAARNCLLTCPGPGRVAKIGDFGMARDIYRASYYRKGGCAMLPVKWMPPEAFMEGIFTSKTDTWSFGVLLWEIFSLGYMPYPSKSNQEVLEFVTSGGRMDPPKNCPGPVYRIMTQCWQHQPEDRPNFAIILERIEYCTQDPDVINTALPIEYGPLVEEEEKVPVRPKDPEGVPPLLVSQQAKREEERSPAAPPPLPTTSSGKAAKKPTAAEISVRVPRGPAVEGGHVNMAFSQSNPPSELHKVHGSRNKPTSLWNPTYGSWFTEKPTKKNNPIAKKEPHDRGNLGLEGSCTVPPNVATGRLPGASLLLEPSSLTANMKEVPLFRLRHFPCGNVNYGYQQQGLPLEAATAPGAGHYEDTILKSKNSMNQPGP
assay info: Ba/F3 cell proliferation assay, EML4-ALK v1 I1171N/D1203N
stated conditions: Ba/F3 stable cells, 72 hours, CellTiter-Glo
pIC50: −log10 of the molar value.
quantity name: pIC50

>  <smiles text>
COCCn1nc2c(c1C#N)-c1cnc(N)c(c1)O[C@H](C)c1cc(F)ccc1-c1ncccc1C2=O

>  <pIC50>
7.30 to 10.00

$$$$
>  <smiles text>
CC(C)n1nc2c(c1C#N)-c1cnc(N)c(c1)O[C@H](C)c1cc(F)ccc1-c1ncccc1C2=O

>  <pIC50>
7.30 to 10.00

$$$$
>  <smiles text>
Cc1cc2n(n1)-c1c(F)cc(F)cc1[C@@H](C)Oc1cc(cnc1N)-c1c(nn(C)c1C#N)C2=O

>  <pIC50>
6.30 to 7.30

$$$$

Record pIC50 for all entries; do not skip any.
1. C[C@H]1Oc2cc(cnc2N)-c2c(CC3CC3)nn(C(=O)N(C)C)c2Cc2cccnc2-c2ccc(F)cc21
2. CCn1nc(C(=O)N(C)C)c2c1-c1cnc(N)c(c1)O[C@H](C)c1cc(F)cc(F)c1-c1ncccc1C2
3. CSc1nn(CC2CC2)c2c1Cc1cn(C)nc1-c1ccc(F)cc1[C@@H](C)Oc1cc-2cnc1N

Output line:
7.30 to 10.00
7.30 to 10.00
6.30 to 7.30

Input line: Data request, read-out pIC50, for C[C@H]1Oc2cc(cnc2N)-c2c(nn(C)c2C#N)C(=O)c2cccnc2-c2ccc(F)cc21
Output line: 7.30 to 10.00

---

Give measured pKi for each item. Keep answers brief.
study target: ALK I1171N/D1203N (Homo sapiens (Human), UniProt Q9UM73, D1203N/I1171N)
Sequence (Q9UM73 1116-1392 I1171N/D1203N): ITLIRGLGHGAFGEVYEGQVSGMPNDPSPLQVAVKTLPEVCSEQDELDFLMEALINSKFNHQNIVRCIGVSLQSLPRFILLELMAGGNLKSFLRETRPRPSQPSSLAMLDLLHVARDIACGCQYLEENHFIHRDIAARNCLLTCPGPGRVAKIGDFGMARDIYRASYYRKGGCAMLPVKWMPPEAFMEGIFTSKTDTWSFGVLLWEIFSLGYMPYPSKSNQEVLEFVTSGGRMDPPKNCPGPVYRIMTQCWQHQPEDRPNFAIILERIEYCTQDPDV
assay info: Biochemical kinase assay, ALK I1171N/D1203N
stated conditions: apparent inhibitory constant, kinase domain, Morrison equation; read-out: ALK-I1171N-D1203N Ki^app
pKi: −log10 of the molar value.

Consider the reported pKi for these molecules:
>  <smiles text>
C[C@H]1Oc2cc(cnc2N)-c2c(c(C(=O)N(C)CC(F)(F)F)nn2CC2CC2)Cc2cn(C)nc2-c2ccc(F)cc21

>  <quantity name>
pKi

>  <experimental value>
> 7.30

$$$$
>  <smiles text>
Cc1ocnc1-c1nn(CC2CC2)c2c1Cc1cccnc1-c1ccc(F)cc1[C@@H](C)Oc1cc-2cnc1N

>  <quantity name>
pKi

>  <experimental value>
> 7.30

$$$$

Next molecule, please.
Input line: What does the data say about its pKi? Entry: C[C@H]1Oc2cc(cnc2N)-c2c(c(C(=O)N(C)C)nn2CC2CC2)Cc2cn(C)nc2-c2c(F)cc(F)cc21
Output line: > 7.30

---

study target: Ba/F3 ETV6-TRKB (Homo sapiens)
Sequence (Q16620 32-822 limits assumed, change not shown): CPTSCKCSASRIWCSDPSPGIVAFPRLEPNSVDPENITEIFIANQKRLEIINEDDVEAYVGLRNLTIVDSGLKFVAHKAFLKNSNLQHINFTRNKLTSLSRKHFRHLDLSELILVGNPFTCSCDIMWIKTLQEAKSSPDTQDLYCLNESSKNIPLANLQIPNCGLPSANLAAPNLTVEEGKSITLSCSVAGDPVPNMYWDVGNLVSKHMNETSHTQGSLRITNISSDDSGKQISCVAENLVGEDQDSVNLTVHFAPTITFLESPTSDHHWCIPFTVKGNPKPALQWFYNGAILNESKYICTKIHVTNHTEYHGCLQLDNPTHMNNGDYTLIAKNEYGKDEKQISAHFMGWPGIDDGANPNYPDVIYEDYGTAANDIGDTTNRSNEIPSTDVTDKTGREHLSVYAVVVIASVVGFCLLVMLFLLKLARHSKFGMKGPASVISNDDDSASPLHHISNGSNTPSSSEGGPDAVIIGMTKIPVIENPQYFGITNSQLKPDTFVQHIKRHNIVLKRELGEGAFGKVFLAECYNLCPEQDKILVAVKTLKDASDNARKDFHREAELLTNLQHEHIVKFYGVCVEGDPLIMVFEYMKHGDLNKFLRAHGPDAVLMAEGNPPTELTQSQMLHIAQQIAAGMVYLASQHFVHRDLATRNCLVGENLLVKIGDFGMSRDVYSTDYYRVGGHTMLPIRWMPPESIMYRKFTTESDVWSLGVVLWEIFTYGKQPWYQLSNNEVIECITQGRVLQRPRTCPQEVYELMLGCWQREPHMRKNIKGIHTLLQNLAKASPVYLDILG
assay info: Ba/F3 cell proliferation assay, ETV6-TRKB
Assay type: cell-based
stated conditions: Ba/F3 stable cells, 72 hours, CellTiter-Glo; read-out: ETV6-TRKB IC50
Would you kindly list IC50 for each of these molecules?

Consider the following illustrative entries.
>  <smiles text>
Cc1cc2n(n1)-c1c(F)cc(F)cc1[C@@H](C)Oc1cc(cnc1N)-c1c(C#N)nn(C)c1C2=O

>  <IC50>
50 to 500 nM

$$$$
>  <smiles text>
C[C@H]1Oc2cc(cnc2N)-c2c(nn(C)c2CC2CC2)C(=O)c2cccnc2-c2ccc(F)cc21

>  <IC50>
> 500 nM

$$$$

Each of the following entries comes with a recorded value; kindly state IC50 for each.
1. C[C@H]1Oc2cc(cnc2N)-c2c(nn(C)c2C#N)Oc2cccnc2-c2ccc(F)cc21
2. C[C@H]1Oc2cc(cnc2N)-c2c(c(C(=O)N3CCCC3)nn2CC2CC2)Cc2cn(C)nc2-c2ccc(F)cc21
3. COCCn1nc2c(c1C#N)-c1cnc(N)c(c1)O[C@H](C)c1cc(F)ccc1-c1ncccc1C2=O
4. C[C@H]1Oc2cc(cnc2N)-c2c(nn(C)c2C#N)C(=O)c2cccnc2-c2ccc(F)cc21

Output line:
1. 50 to 500 nM
2. > 500 nM
3. 50 to 500 nM
4. 50 to 500 nM

# map each molecule to its IC50
1. C[C@H]1Oc2cc(cnc2N)-c2c(c(C(N)=O)nn2C2CCC2)Cc2cn(C)nc2-c2ccc(F)cc21
2. Cc1ccc2c(n1)-c1ccc(F)cc1[C@@H](C)Oc1cc(cnc1N)-c1c(C#N)nn(C(=O)N(C)C)c1C2
3. CC(=O)c1nn(CC2CC2)c2c1Cc1cn(C)nc1-c1ccc(F)cc1[C@@H](C)Oc1cc-2cnc1N
4. CCn1nc(C#N)c2c1-c1cnc(N)c(c1)O[C@H](C)c1cc(F)ccc1-c1nn(C)cc1C2
5. C[C@H]1Oc2cc(cnc2N)-c2c(c(C#N)nn2CC2CC2)Cc2cn(C)nc2-c2ccc(F)cc21
6. C[C@H]1Oc2cc(cnc2N)-c2c(c(C(=O)N3CC(F)(F)C3)nn2CC2CC2)Cc2cn(C)nc2-c2ccc(F)cc21
7. Cc1nc2c(s1)C(=O)c1c(c(C#N)nn1C)-c1cnc(N)c(c1)O[C@H](C)c1cc(F)ccc1-2

Output line:
1. > 500 nM
2. > 500 nM
3. > 500 nM
4. 50 to 500 nM
5. > 500 nM
6. > 500 nM
7. > 500 nM

Return reported IC50 values for all items listed beneath this line.
1. C[C@H]1Oc2nc(cnc2N)-c2c(nn(C)c2C#N)C(=O)c2cccnc2-c2ccc(F)cc21
2. C[C@H]1Oc2cc(cnc2N)-c2c(c(C(=O)N(C)C)nn2CC2CC2)Cc2cn(C)nc2-c2c(F)cc(F)cc21

Output line:
["0.1 to 50 nM", "> 500 nM"]

Dear reader, for each entry below, please note its IC50.
1. C[C@H]1Oc2cc(cnc2N)-c2c(c(C(=O)N(C)C)nn2CC2CC2)Cc2cn(C)nc2-c2ccc(F)cc21
2. CCn1nc(C(=O)N(C)C)c2c1-c1cnc(N)c(c1)O[C@H](C)c1cc(F)ccc1-c1ncccc1C2
3. C[C@H]1Oc2cc(cnc2N)-c2c(C#N)nn(C(=O)N(C)C)c2Cc2cccnc2-c2c(F)cc(F)cc21
4. Cc1ocnc1-c1nn(CC2CC2)c2c1Cc1cccnc1-c1ccc(F)cc1[C@@H](C)Oc1cc-2cnc1N

Output line:
["> 500 nM", "0.1 to 50 nM", "> 500 nM", "> 500 nM"]
